Listed here: items and their measured glycan array binding signal (z-score).
Molecular target: GlcA(b1-3)GlcNAc
Experiment: glycan array binding signal (z-score within array); higher = stronger binding
Details: glycan notation: IUPAC condensed, linker removed
Shown is part of a subset that was picked to be rich in the strongest signals.
I'd appreciate a reply containing only the number, no unit.

Use the examples below as a reference point.
binder	glycan array binding signal (z-score)
SUN4 (Saccharomyces cerevisiae), P53616 (protein) MGSSHHHHHHSSGLVPRGSHNGSIYGDLADFSGPYEKFEDGTIPCGQFPSGQGVIPISWLDEGGWSGVENTDTSTGGSCKEGSYCSYACQPGMSKTQWPSDQPSDGRSIGGLLCKDGYLYRSNTDTDYLCEWGVDAAYVVSELSNDVAICRTDYPGTENMVIPTYVQAGDSLPLTVVDQDTYYTWQGLKTSAQYYVNNAGISVEDACVWGSSSSGVGNWAPLNFGAGSSDGVAYLSLIPNPNNGNALNFNVKIVAADDSSTVNGECIYENGSFSGGSDGCTVSVTAGKAKFVLYN	-0.127
Regenerating Gene I (Homo sapiens), P05451 (protein) MAQTSSYFMLISCLMFLSQSQGQEAQTELPQARISCPEGTNAYRSYCYYFNEDRETWVDADLYCQNMNSGNLVSVLTQAEGAFVASLIKESGTDDFNVWIGLHDPKKNRRWHWSSGSLVSYKSWGIGAPSSVNPGYCVSLTSSTGFQKWKDVPCEDKFSFVCKFKN	0.836
BDCA-2 (Homo sapiens), Q8WTT0 (protein) MVPEEEPQDREKGLWWFQLKVWSMAVVSILLLSVCFTVSSVVPHNFMYSKTVKRLSKLREYQQYHPSLTCVMEGKDIEDWSCCPTPWTSFQSSCYFISTGMQSWTKSQKNCSVMGADLVVINTREEQDFIIQNLKRNSSYFLGLSDPGGRRHWQWVDQTPYNENVTFWHSGEPNNLDERCAIINFRSSEEWGWNDIHCHVPQKSICKMKKIYI	-0.153
SEX4 (Arabidopsis thaliana), Q944A8 (protein) TQAMGAVLTYRHELGMNYNFIRPDLIVGSCLQTPEDVDKLRKIGVKTIFCLQQDPDLEYFGVDISSIQAYAKKYSDIQHIRCEIRDFDAFDLRMRLPAVVGTLYKAVKRNGGVTYVHCTAGMGRAPAVALTYMFWVQGYKLMEAHKLLMSKRSCFPKLDAIRNATIDILTGLKRKTVTLTLKDKGFSRVEISGLDIGWGQRIPLTLGKGTGFWILKRELPEGQFEYKYIIDGEWTHNEAEPFIGPNKDGHTNNYAKVVDDPTSVDGTTRERLSSEDPELLEEERSKLIQFLETCSEAEV	16

Now examine the next entry.
In: Determine its reported glycan array binding signal (z-score): SLLPI (Homo sapiens), Q8IXA5 (protein) MVSALRGAPLIRVHSSPVSSPSVSGPRRLVSCLSSQSSALSQSGGGSTSAAGIEARSRALRRRWCPAGIMLLALVCLLSCLLPSSEAKLYGRCELARVLHDFGLDGYRGYSLADWVCLAYFTSGFNAAALDYEADGSTNNGIFQINSRRWCSNLTPNVPNVCRMYCSDLLNPNLKDTVICAMKITQEPQGLGYWEAWRHHCQGKDLTEWVDGCDF
Out: 0.16

Hey, just so you know, these numbers are from the supplement of paper PMC8728848.
